Hello, the source for this data is ChEMBL document CHEMBL1132863, in case you need it.

test system: CCRF-CEM; test: The compound was evaluated for percent reduction of H2O2-induced H2DCFDA fluorescence in human CEM T-cells.; format: functional; parameters: concentration or dose not given beside the values
MEASURED PARAMETER: Reduction (%)

CHEMICAL STRUCTURE: Fc1ccc(CC/N=C(\S)Nc2ccc(Br)cn2)cc1
MEASURED PARAMETER: Reduction
UNITS: %
DATA VALUE: 13

CHEMICAL STRUCTURE: Fc1ccccc1CC/N=C(\S)Nc1ccc(Br)cn1
MEASURED PARAMETER: Reduction
UNITS: %
DATA VALUE: 47

CHEMICAL STRUCTURE: COc1cccc(CC/N=C(\S)Nc2ccc(Br)cn2)c1
MEASURED PARAMETER: Reduction
UNITS: %
DATA VALUE: 19.7

CHEMICAL STRUCTURE: S=C(NCCc1ccccc1)Nc1ccc(Br)cn1
MEASURED PARAMETER: Reduction
UNITS: %
DATA VALUE: 32.1

CHEMICAL STRUCTURE: Fc1cccc(CC/N=C(\S)Nc2ccc(Br)cn2)c1
MEASURED PARAMETER: Reduction
UNITS: %
DATA VALUE: 45

CHEMICAL STRUCTURE: S=C(NCCc1ccccc1Cl)Nc1ccc(Br)cn1
MEASURED PARAMETER: Reduction
UNITS: %
DATA VALUE: 56.3

CHEMICAL STRUCTURE: COc1ccc(CC/N=C(\S)Nc2ccc(Br)cn2)cc1
MEASURED PARAMETER: Reduction
UNITS: %
DATA VALUE: 21.4

CHEMICAL STRUCTURE: COc1ccc(OC)c(CCNC(=S)Nc2ccc(Br)cn2)c1
MEASURED PARAMETER: Reduction
UNITS: %
DATA VALUE: 29.4

CHEMICAL STRUCTURE: COc1ccccc1CC/N=C(\S)Nc1ccc(Br)cn1
MEASURED PARAMETER: Reduction
UNITS: %
DATA VALUE: 72.3

====

target: Human immunodeficiency virus type 1 reverse transcriptase (Human immunodeficiency virus 1, UniProt Q72547); assay: Inhibition of recombinant HIV-1 reverse transcriptase
MEASURED PARAMETER: IC50 (nM)

CHEMICAL STRUCTURE: Clc1ccccc1CC/N=C(/Nc1ccc(Br)cn1)SCc1ccccc1
MEASURED PARAMETER: IC50
RELATION SYMBOL: >
DATA VALUE: 100000

CHEMICAL STRUCTURE: S=C(NCCc1ccccc1)Nc1ccc(Br)cn1
MEASURED PARAMETER: IC50
RELATION SYMBOL: =
DATA VALUE: 1300

CHEMICAL STRUCTURE: COc1ccc(CC/N=C(\S)Nc2ccc(Br)cn2)cc1
MEASURED PARAMETER: IC50
RELATION SYMBOL: =
DATA VALUE: 900

CHEMICAL STRUCTURE: CS/C(=N\CCc1ccccc1Cl)Nc1ccc(Br)cn1
MEASURED PARAMETER: IC50
RELATION SYMBOL: >
DATA VALUE: 100000

CHEMICAL STRUCTURE: COc1ccccc1CC/N=C(\S)Nc1ccc(Br)cn1
MEASURED PARAMETER: IC50
RELATION SYMBOL: =
DATA VALUE: 1000

CHEMICAL STRUCTURE: COc1cccc(CC/N=C(\S)Nc2ccc(Br)cn2)c1
MEASURED PARAMETER: IC50
RELATION SYMBOL: =
DATA VALUE: 400

CHEMICAL STRUCTURE: COc1ccc(OC)c(CC/N=C(/Nc2ccc(Br)cn2)SCc2ccccc2)c1
MEASURED PARAMETER: IC50
RELATION SYMBOL: >
DATA VALUE: 100000

CHEMICAL STRUCTURE: Cc1cn([C@H]2C[C@H](N=[N+]=[N-])[C@@H](CO)O2)c(=O)[nH]c1=O
MEASURED PARAMETER: IC50
RELATION SYMBOL: >
DATA VALUE: 100000

CHEMICAL STRUCTURE: Fc1ccccc1CC/N=C(/Nc1ccc(Br)cn1)SCc1ccccc1
MEASURED PARAMETER: IC50
RELATION SYMBOL: >
DATA VALUE: 100000
